- TARGET_SYSTEM: T1, Histidine-tagged human 4-1BB protein (h4-1BB-His) (human, UniProt Q07011 24-186)
- T1 construct: not shown: histidine tag
- TEST: SPR (Biacore T200), antibody on Protein A chip, h4-1BB-His injected;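 note: dissociation phase followed for 300 s, Kd derived as koff divided by kon from the kinetic fit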
// label = Condition met if koff is not less than 0.002 s⁻¹, otherwise Condition not met

1C4-H4K3-IgG4 (antibody, V domains shown, humanized) VH: QGQMVQSGAEVKKPGASVKLSCKTSGFTFSSSYINWLRQAPGQSLEWIAWIFAGTGGTYYNQKFTGRAQLTVDTSASTAYMELSSLRSEDTAIYYCARHSPRATLFDFWGQGTTLTVSS VL: EIVLTQSPATLSLSPGERATMSCRASSSVNHMHWYQQKPGFSPRAWIYATSNLASGIPARFSGSGSGTSFTLTISSLEPEDFATYYCQQWSSNPYTFGGGTKLEIK
Condition not met
55-8F6-mHvKv-IgG2 (antibody, V domains shown) VH: QVQLQQPGAELVRPGASVKLSCKASGYIFTSYWINWVKQRPGQGLEWIGNIYPSDSYTNYNQKFKDKATLTVDKSSSTAYMQLSSPTSEDSAVYYCTRFHYGSSPFDNWGQGTTLTVSS VL: DIQMTQSTSSLSASLGDRVTISCRASQDISHYLNWYQQKPDGTVKLLIYYTSRLHSGVPSRFSGSGSGTDYSLTISNLEQEDFATYFCQQGHTLPRTFGGGTKLEIK
Condition met
5F9-H2K4-IgG4 (antibody, V domains shown, humanized) VH: QVQLKESGPGLVKPSETLSLTCTVSGFSLTTYDISWVRQPPGKGLEWLGVIWTGGGTNYNSSFMSRVTISKDTSKNQVSLKLSSVTAADTAIYYCERVDYWGQGTTVTVSS VL: DVVMTQSPLSLPVTLGDPASISCRSSQSLVHSNGNTYLHWYLQRPGQSPKLLIYKVSNRFSGVPDRFSGSGSGTAFTFKISRVEAEDVGVYYCSQNTHVPWTFGGGTKLEIK
Condition met
5F9-H1K3-IgG4 (antibody, V domains shown, humanized) VH: QVQLQESGPGLVKPSETLSLTCTVSGFSLTTYDISWVRQPPGKGLEWIGVIWTGGGTNYNSSFMSRVTISKDTSKNQVSLKLSSVTAADTAVYYCERVDYWGQGTTVTVSS VL: DVVMTQSPLSLPVTLGQPASISCRSSQSLVHSNGNTYLHWYQQRPGQSPKLLIYKVSNRFSGVPDRFSGSGSGTAFTFKISRVEAEDVGVYYCSQNTHVPWTFGGGTKLEIK
Condition met
5F9-H1K2-IgG4 (antibody, V domains shown, humanized; also called 30-5F9-H1K2-IgG4) VH: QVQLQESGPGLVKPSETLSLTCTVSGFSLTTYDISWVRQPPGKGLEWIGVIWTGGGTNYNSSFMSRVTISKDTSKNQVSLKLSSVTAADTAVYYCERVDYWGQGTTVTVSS VL: DVVMTQSPLSLPVTLGQPASISCRSSQSLVHSNGNTYLHWFQQRPGQSPKLLIYKVSNRFSGVPDRFSGSGSGTAFTFKISRVEAEDVGVYYCSQNTHVPWTFGGGTKVEIK
Condition met
